Cited source for all entries: patent US10385057B2

IC50 values for the compounds below.
Molecular target: MAGL (Mus musculus)
Construct: mouse brain membrane fraction or cell lysates for mouse assays
Sequence (O35678 whole entry): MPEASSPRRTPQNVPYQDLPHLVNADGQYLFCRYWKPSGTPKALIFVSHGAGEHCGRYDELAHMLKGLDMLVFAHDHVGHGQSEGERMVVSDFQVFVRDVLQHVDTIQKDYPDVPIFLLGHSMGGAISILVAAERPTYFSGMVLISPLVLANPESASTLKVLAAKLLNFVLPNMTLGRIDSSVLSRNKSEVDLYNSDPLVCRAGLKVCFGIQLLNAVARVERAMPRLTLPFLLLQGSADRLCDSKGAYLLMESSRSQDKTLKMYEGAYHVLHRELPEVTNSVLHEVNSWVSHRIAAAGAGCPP
Experiment: In vitro competitive activity-based protein profiling, mouse MAGL

compound | measured.property | reported
Cc1cccc(CN2CC3CN(C(=O)n4cc(C(F)(F)F)cn4)CC3C2)c1 (centres unmarked) | IC50 | ≤ 100 nM
O=C(c1cnn(C(=O)N2CC3CN(Cc4ccc(Cl)cc4)CC3C2)c1)N1CCCCC1 (centres unmarked) | IC50 | 1000 to 10000 nM
O=C(N1CCC2(CCN(Cc3cccc(Cl)c3)C2)C1)n1cc(C(F)(F)F)cn1 (centres unmarked) | IC50 | ≤ 100 nM
O=C(c1cnn(C(=O)N2CC3CN(Cc4cccc(Oc5ccc(Cl)cc5)c4)CC3C2)c1)N1CCOCC1 (centres unmarked) | IC50 | 1000 to 10000 nM
Cc1cc(N2CCOCC2)ccc1CN1CCC2(CCN(C(=O)n3cc(Cl)cn3)C2)C1 (centres unmarked) | IC50 | 100 to 1000 nM
O=C(N1CCC2(CCN(Cc3ccc(N4CCCC4)cc3)C2)C1)n1cc(Cl)cn1 (centres unmarked) | IC50 | 100 to 1000 nM
NC(=O)c1cnn(C(=O)N2CCC3(CCN(Cc4ccc(N5CCOCC5)cc4C(F)(F)F)C3)C2)c1 (centres unmarked) | IC50 | 100 to 1000 nM
O=C(N1CCC2(CCN(Cc3ccccc3Cl)C2)C1)n1cc(C(F)(F)F)cn1 (centres unmarked) | IC50 | ≤ 100 nM
CNC(=O)c1cnn(C(=O)N2CCC3(CCN(Cc4ccc(Cl)cc4)C3)C2)c1 (centres unmarked) | IC50 | 1000 to 10000 nM
O=C(N1CCC2(CCN(Cc3ccc(Cl)cc3)C2)C1)n1cc(Cl)cn1 (centres unmarked) | IC50 | 100 to 1000 nM

Q: What value of IC50 has been reported for the following compound? O=C(N1CC2CN(Cc3cccc(C(F)(F)F)c3)CC2C1)n1cc(C(F)(F)F)cn1 (centres unmarked)
Ans: ≤ 100 nM

Q: What value of IC50 has been reported for the following compound? Cc1cc(-c2ccccc2)ccc1CN1CCC2(CCN(C(=O)n3cc(Cl)cn3)C2)C1 (centres unmarked)
Ans: ≤ 100 nM

Q: What value of IC50 has been reported for the following compound? NC(=O)c1cnn(C(=O)N2CCC3(CCN(Cc4ccc(Cl)cc4)C3)C2)c1 (centres unmarked)
Ans: 1000 to 10000 nM

Q: What value of IC50 has been reported for the following compound? O=C(N1CC2CN(Cc3ccccc3C(F)(F)F)CC2C1)n1cc(C(F)(F)F)cn1 (centres unmarked)
Ans: ≤ 100 nM
